Data provenance is ChEMBL document CHEMBL3988442.

# Percent Effect listing for each entry below
- Tested on: Wolbachia pipientis
- Test summary: Anti-Wolbachia Cell-Based Screen
- Type: functional
- Parameters: scale not given: in the data most compounds retested in dose-response had high values
- Particulars: 5 µM
Among all 48,000 compounds or so, about 13,000 (27%) showed an effect of 50% or more. Some of the results follow.
Numeric answer only, unit % assumed.

O=C(c1ccco1)N(CC(F)(F)F)C1CCCOC1 (centres undefined) :: -12.11
O=C(C1CC(=O)N(c2ccccc2Br)C1)N1CCCCCC1 (centres undefined) :: 6.985
CN(Cc1ccncc1)C(=O)Nc1cnn(CC2CCCO2)c1 (centres undefined) :: -18.51
CCN(C)c1ccc(CNS(=O)(=O)CC2CCCO2)cc1F (centres undefined) :: -7.103
COc1ccc(C(C)NC(=O)Cn2ccc(=O)n(C)c2=O)cc1F (centres undefined) :: 127.2

Challenge: Please give the measured Percent Effect for this molecule: CC(CNS(=O)(=O)CCCC#N)c1ccsc1 (centres undefined)
Response given: -6.761
